Could you please report measured growth inhibition for the items listed next?
Assay method text: NCI Yeast Anticancer Drug Screen. Data for the mec2-1 strain (AID 157)
Experimental conditions: S. cerevisiae mec2-1 strain, hits give high values; at 50.0 µM unless noted
About 79,000 compounds went through this panel and 15% of them were active in at least one assay; those are over-represented in the sample as a whole.
All answers are understood in %, so give the number only.

### Prompt Which value of growth inhibition has been reported for CCC(=O)Nc1ccccc1Cl in the records?
### Response -1.1

### Prompt Bench note: what growth inhibition did CCN(CC)CCCCCCNc1cc(O)cc2cccnc12 show?
### Response 30.8

### Prompt Which value of growth inhibition has been reported for Cc1ccc(Nc2nc(N)nc3c2ncn3C2OC(CO)C(O)C2O)cc1 (configuration not stated) in the records?
### Response 2.6

### Prompt growth inhibition for CCO[C@@H]1OC(=O)[C@H]2C(c3ccccc3)=NO[C@@H]12 ?
### Response -22.4

### Prompt Find the recorded growth inhibition belonging to CCOC(=O)c1cn[nH]c1C and report it.
### Response -0.9

### Prompt Reported growth inhibition for C1CCCC(=NN=C2CCCCCCC2)CCC1 : what is it?
### Response 21.6

### Prompt Report growth inhibition for NN=C(c1ccc([N+](=O)[O-])cc1)c1ccc([N+](=O)[O-])cc1 please.
### Response 0.55
